TEST DETAILS: Clearance in RARG2-/-gammac-/- Balb/c mouse at […], iv administered as single dose by LC-MS/MS analysis
Type: ADME, organism-based
RUN CONDITIONS: in vivo
TEST READOUT: clearance (mL/min/kg)
Dear colleague, please return just the value in mL/min/kg, with no unit written.

stdin: What does the data say about its clearance? Entry: `CCc1ccc(-c2cc(NC3CCN(C)CC3)c3cc(OC)c(OCCCN4CCCC4)cc3n2)o1`
stdout: 98.3

---

A collection of compounds and their measured pIC50
STUDY SYSTEM: DNA (cytosine-5)-methyltransferase 1 (Homo sapiens, UniProt P26358)
Sequence (P26358 whole entry): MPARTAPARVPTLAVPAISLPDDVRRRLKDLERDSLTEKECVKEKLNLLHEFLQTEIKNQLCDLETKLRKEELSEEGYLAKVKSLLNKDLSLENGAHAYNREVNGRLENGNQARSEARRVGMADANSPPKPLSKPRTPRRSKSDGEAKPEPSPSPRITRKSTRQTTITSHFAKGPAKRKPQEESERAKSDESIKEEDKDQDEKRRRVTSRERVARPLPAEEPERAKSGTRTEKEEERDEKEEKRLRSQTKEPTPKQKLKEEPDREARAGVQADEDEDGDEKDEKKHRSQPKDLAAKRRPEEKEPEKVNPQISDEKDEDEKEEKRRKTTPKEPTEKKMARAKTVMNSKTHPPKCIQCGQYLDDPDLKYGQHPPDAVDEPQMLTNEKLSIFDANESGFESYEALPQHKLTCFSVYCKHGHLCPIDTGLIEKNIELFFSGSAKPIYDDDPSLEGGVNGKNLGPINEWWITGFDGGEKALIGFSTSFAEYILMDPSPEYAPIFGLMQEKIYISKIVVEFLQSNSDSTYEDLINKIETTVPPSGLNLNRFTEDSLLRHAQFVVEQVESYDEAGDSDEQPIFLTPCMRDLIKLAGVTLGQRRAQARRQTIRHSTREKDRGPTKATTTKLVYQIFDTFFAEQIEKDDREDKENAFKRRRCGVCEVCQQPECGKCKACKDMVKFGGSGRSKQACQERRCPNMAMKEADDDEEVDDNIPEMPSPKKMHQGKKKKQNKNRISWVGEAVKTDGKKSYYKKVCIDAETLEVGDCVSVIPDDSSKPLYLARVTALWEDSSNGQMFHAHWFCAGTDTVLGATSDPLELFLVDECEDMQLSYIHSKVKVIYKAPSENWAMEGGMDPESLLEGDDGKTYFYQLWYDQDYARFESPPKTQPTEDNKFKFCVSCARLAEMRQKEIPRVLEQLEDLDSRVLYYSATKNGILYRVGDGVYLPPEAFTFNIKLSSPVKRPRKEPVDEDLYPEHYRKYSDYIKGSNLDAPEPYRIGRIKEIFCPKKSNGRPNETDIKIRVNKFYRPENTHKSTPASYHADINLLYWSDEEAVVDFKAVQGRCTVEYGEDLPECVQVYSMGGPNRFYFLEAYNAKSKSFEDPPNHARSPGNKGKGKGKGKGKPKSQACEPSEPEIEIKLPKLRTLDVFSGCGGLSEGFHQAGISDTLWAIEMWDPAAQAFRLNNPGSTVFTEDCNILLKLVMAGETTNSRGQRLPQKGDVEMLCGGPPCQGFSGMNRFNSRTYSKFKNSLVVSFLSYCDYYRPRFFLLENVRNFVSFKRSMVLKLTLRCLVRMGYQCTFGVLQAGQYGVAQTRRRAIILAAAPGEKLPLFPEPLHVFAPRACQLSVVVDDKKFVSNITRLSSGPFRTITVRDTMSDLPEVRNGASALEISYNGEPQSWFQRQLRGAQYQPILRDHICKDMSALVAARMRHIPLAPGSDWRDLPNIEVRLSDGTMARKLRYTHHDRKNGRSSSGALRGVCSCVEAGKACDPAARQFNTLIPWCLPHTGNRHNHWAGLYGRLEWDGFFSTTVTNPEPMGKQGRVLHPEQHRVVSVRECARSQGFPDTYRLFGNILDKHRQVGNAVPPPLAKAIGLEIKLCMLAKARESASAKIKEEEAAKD
TEST DETAILS: Inhibition of human DNMT1 using polydeoxyinosine polydeoxycytosine DNA as substrate after 15 mins in presence of SAM by TR-FRET assay
Answer as the number alone; pIC50 is minus log10 of concentration in mol/L.

# annotated cases, reported pIC50 shown
[[record]]
given_smiles = "COc1cc2c(NC3CCN(C)CC3)cc(C3=CCCCC3)nc2cc1OCCCN1CCCC1"
study_system = "DNA (cytosine-5)-methyltransferase 1 (Homo sapiens, UniProt P26358)"
test_readout = "pIC50"
observed = 6.31

[[record]]
given_smiles = "COc1cc2c(NC3CCN(C)CC3)cc(-c3ccc(C)s3)nc2cc1OCCCN1CCCC1"
study_system = "DNA (cytosine-5)-methyltransferase 1 (Homo sapiens, UniProt P26358)"
test_readout = "pIC50"
observed = 6.64


stdin: What does the data say about its pIC50? Entry: `COc1cc2c(NC3CCN(C)CC3)cc(C3CCOCC3)nc2cc1OCCCN1CCCC1`
stdout: 5.35

---

TEST DETAILS: Volume of distribution at steady state in RARG2-/-gammac-/- Balb/c mouse at 5 mg/kg, iv administered as single dose by LC-MS/MS analysis
Format: ADME, organism-based
RUN CONDITIONS: in vivo, read-out: Vdss
TEST READOUT: Vd (L/kg)
Dear colleague, please return just the value in L/kg, with no unit written.

stdin: What does the data say about its Vd? Entry: `COc1cc2c(NC3CCN(C4CC4)CC3)cc(-c3ccc(C)o3)nc2cc1OCCCN1CCCC1`
stdout: 11.9

---

A collection of molecules and their measured GI50
TEST DETAILS: Growth inhibition of human LAL-CUN-2 cells after 48 hrs by MTS assay
Type: functional
Dear colleague, please return just the value in nM, with no unit written.

[[record]]
given_smiles = "COc1cc2c(NC3CCN(C)CC3)cc(-c3ccc(C)o3)nc2cc1OCCCN1CCCC1"
observed = 664

[[record]]
given_smiles = "COc1cc2c(NC3CCN(C4CC4)CC3)cc(-c3ccc(C)o3)nc2cc1OCCCN1CCCC1"
observed = 1380

[[record]]
given_smiles = "CCc1ccc(-c2cc(NC3CCN(C)CC3)c3cc(OC)c(OCCCN4CCCC4)cc3n2)o1"
observed = 577


Switching to the query record.
stdin: What does the data say about its GI50? Entry: `COc1cc2c(NC3CCN(C)CC3)cc(C3=CCCCC3)nc2cc1OCCCN1CCCC1`
stdout: 4290

---

TEST DETAILS: Half life in RARG2-/-gammac-/- Balb/c mouse at […], iv administered as single dose by LC-MS/MS analysis
Assay type: ADME, organism-based
RUN CONDITIONS: in vivo
TEST READOUT: half-life

stdin: What does the data say about its half-life? Entry: `CCc1ccc(-c2cc(NC3CCN(C)CC3)c3cc(OC)c(OCCCN4CCCC4)cc3n2)o1`
stdout: 792 min

---

STUDY SYSTEM: CYP2C9 (Homo sapiens, UniProt P11712)
Sequence (P11712 whole entry): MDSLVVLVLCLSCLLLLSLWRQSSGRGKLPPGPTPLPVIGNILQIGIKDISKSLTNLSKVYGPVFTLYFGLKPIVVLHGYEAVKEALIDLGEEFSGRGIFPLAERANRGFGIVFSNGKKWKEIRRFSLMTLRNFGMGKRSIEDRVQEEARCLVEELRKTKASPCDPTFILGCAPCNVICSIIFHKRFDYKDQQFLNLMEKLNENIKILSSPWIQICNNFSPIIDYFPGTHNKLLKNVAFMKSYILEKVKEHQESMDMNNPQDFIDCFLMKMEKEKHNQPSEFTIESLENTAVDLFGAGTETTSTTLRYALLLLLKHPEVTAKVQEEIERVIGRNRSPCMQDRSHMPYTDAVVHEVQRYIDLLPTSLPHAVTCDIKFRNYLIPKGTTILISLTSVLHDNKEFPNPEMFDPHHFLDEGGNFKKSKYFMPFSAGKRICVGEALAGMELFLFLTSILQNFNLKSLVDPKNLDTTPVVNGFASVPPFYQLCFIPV
TEST DETAILS: Inhibition of CYP2C9 in human liver microsomes at 10 uM after 10 mins in presence of NADPH by LC-MS/MS analysis relative to control
Assay type: ADME
TEST READOUT: inhibition at 10 min, 10 µM (%)
Dear colleague, please return just the value in %, with no unit written.

[[record]]
given_smiles = "COc1cc2c(NC3CCN(C4CC4)CC3)cc(-c3ccc(C)o3)nc2cc1OCCCN1CCCC1"
study_system = "CYP2C9 (Homo sapiens, UniProt P11712)"
observed = 8


Switching to the query record.
stdin: What does the data say about its inhibition at 10 min, 10 µM? Entry: `COc1cc2c(NC3CCN(C(C)C)CC3)cc(-c3ccc(C)o3)nc2cc1OCCCN1CCCC1`
stdout: 6.1

---

TEST DETAILS: Half life in human liver microsomes at 1 uM preincubated for 10 mins followed by NADP addition after 20 mins by LC-MS/MS analysis
Type: ADME, microsome
RUN CONDITIONS: liver microsomes
TEST READOUT: half-life at 1 µM

[[record]]
given_smiles = "COc1cc2c(NC3CCN(C)CC3)cc(-c3ccc(C)o3)nc2cc1OCCCN1CCCC1"
observed = "> 2.4 h"


Switching to the query record.
stdin: What does the data say about its half-life at 1 µM? Entry: `COc1cc2c(NC3CCN(C4CC4)CC3)cc(-c3ccc(C)o3)nc2cc1OCCCN1CCCC1`
stdout: > 2.4 h

---

TEST DETAILS: AUC (0 to 24 hrs) in RARG2-/-gammac-/- Balb/c mouse at […], iv administered as single dose by LC-MS/MS analysis
Type: ADME, organism-based
Set-up: dose 1.9 mg/kg, time < 24 hr, route intravenous
RUN CONDITIONS: in vivo
TEST READOUT: AUC(0-t) at 24 h (µM·h)
Dear colleague, please return just the value in µM·h, with no unit written.

stdin: What does the data say about its AUC(0-t) at 24 h? Entry: `CCc1ccc(-c2cc(NC3CCN(C)CC3)c3cc(OC)c(OCCCN4CCCC4)cc3n2)o1`
stdout: 0.505

---

STUDY SYSTEM: Histone-lysine N-methyltransferase EHMT2 (Homo sapiens, UniProt Q96KQ7)
Sequence (Q96KQ7 whole entry): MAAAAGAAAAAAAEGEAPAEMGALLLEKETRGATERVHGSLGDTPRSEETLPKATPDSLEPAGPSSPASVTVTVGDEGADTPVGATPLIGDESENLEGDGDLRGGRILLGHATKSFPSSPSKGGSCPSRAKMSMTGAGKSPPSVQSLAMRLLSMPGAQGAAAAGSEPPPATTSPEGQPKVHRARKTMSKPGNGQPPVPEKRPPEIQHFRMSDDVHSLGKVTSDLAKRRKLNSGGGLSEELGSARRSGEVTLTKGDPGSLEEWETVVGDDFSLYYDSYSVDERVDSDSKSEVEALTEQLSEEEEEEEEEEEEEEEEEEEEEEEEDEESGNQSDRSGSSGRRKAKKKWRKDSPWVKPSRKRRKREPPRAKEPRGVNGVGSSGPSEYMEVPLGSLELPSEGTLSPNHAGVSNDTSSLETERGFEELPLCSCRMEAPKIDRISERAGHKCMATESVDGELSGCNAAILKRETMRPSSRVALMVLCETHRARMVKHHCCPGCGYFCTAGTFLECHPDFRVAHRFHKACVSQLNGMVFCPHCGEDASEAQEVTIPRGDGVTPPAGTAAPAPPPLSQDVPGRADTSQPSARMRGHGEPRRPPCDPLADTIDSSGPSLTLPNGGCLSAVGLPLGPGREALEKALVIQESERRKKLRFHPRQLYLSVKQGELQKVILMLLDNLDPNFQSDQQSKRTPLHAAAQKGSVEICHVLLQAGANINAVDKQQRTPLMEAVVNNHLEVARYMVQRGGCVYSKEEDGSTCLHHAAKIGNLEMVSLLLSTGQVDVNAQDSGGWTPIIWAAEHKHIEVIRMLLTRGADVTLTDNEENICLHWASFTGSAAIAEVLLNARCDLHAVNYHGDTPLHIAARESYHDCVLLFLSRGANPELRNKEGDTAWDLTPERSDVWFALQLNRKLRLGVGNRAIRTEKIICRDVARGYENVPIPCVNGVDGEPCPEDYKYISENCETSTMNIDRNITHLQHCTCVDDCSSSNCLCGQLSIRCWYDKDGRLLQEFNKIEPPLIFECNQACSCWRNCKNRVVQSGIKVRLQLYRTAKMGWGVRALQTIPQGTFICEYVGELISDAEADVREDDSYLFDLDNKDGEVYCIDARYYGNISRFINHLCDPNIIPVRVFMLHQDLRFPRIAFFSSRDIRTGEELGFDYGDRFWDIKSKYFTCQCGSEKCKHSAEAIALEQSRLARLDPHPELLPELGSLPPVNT
TEST DETAILS: Inhibition of G9a (unknown origin)
TEST READOUT: IC50 (µM)
Dear colleague, please return just the value in µM, with no unit written.

stdin: What does the data say about its IC50? Entry: `Cc1cc(Nc2ccc(NC(=O)c3ccc(Nc4ccnc5ccccc45)cc3)cc2)nc(N)n1`
stdout: 59

---

Test system: THLE-2
TEST DETAILS: Growth inhibition of human THLE2 cells after 72 hrs by MTS assay
Format: cell-based
RUN CONDITIONS: thle-2, 72 h
A collection of molecules and their measured LC50
Dear colleague, please return just the value in µM, with no unit written.

# annotated cases, reported LC50 shown
[[record]]
given_smiles = "COc1cc2c(NC3CCN(C)CC3)cc(-c3ccc(C)s3)nc2cc1OCCCN1CCCC1"
observed = 4.06

[[record]]
given_smiles = "CCc1ccc(-c2cc(NC3CCN(C(C)C)CC3)c3cc(OC)c(OCCCN4CCCC4)cc3n2)o1"
observed = 1.72

[[record]]
given_smiles = "COc1cc2c(NC3CCN(C)CC3)cc(C3=CCCCC3)nc2cc1OCCCN1CCCC1"
observed = 7.58


stdin: What does the data say about its LC50? Entry: `CCc1ccc(-c2cc(NC3CCN(C4CC4)CC3)c3cc(OC)c(OCCCN4CCCC4)cc3n2)o1`
stdout: 0.703

stdin: What does the data say about its LC50? Entry: `COc1cc2c(NC3CCN(C(C)C)CC3)cc(-c3ccc(C)o3)nc2cc1OCCCN1CCCC1`
stdout: 1.34

stdin: What does the data say about its LC50? Entry: `COc1cc2c(NC3CCN(C(C)C)CC3)cc(C3CCCCC3)nc2cc1OCCCN1CCCC1`
stdout: 83.8

stdin: What does the data say about its LC50? Entry: `COc1cc2c(NC3CCN(C)CC3)cc(-c3ccc(C)o3)nc2cc1OCCCN1CCCC1`
stdout: 1.78

stdin: What does the data say about its LC50? Entry: `COc1cc2c(NC3CCN(C)CC3)cc(-c3ccc(C)[nH]3)nc2cc1OCCCN1CCCC1`
stdout: 7.68

stdin: What does the data say about its LC50? Entry: `COc1cc2c(NC3CCN(C4CC4)CC3)cc(-c3ccc(C)o3)nc2cc1OCCCN1CCCC1`
stdout: 0.455

---

STUDY SYSTEM: CYP2D6 (Homo sapiens, UniProt P10635)
Sequence (P10635 whole entry): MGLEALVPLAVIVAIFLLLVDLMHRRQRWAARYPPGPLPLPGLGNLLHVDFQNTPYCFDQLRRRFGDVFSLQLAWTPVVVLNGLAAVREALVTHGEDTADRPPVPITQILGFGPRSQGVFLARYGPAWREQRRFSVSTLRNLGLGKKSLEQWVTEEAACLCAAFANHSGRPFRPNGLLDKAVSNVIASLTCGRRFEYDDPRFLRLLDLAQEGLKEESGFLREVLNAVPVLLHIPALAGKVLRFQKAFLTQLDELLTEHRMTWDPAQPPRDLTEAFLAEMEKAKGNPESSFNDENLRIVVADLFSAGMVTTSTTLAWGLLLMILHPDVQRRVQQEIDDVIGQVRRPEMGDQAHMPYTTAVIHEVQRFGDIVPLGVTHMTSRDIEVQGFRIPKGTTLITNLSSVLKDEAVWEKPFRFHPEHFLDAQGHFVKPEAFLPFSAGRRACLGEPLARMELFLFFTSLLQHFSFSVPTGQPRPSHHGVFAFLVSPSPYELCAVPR
TEST DETAILS: Inhibition of CYP2D6 in human liver microsomes at 10 uM after 10 mins in presence of NADPH by LC-MS/MS analysis relative to control
Type: ADME
A collection of compounds and their measured inhibition at 10 min, 10 µM

[[record]]
given_smiles = "COc1cc2c(NC3CCN(C(C)C)CC3)cc(-c3ccc(C)o3)nc2cc1OCCCN1CCCC1"
test_readout = "inhibition at 10 min, 10 µM"
observed = "11.4%"


stdin: What does the data say about its inhibition at 10 min, 10 µM? Entry: `COc1cc2c(NC3CCN(C4CC4)CC3)cc(-c3ccc(C)o3)nc2cc1OCCCN1CCCC1`
stdout: 27.6%
